- Target desc: T1, recombinant protein comprising the whole extracellular part of IL1RI (UniProt P14778 18-336)
- T1 chain: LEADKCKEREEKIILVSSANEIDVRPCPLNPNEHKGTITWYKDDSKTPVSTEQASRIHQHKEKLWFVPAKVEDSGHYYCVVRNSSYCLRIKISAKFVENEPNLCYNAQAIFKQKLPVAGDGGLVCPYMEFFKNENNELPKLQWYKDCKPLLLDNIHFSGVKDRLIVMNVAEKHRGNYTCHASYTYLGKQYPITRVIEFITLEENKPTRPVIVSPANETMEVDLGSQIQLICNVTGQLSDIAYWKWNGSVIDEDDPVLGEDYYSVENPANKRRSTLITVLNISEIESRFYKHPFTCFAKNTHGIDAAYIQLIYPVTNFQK
- Measurement description: SPR
pKd: −log10 of the molar value.
Assay readout: pKd

> print(dat)
                                     binder  endpoint.value
1  SGRKSSKMQA [Ilantafin peptide (SEQ ID NO:1), SGRKSSKMQA]            6.77
